Reported growth values follow for various compounds
Test system: NCI-H522 lung
METHOD NOTES: NCI-60 one-dose screen, 48 h (100 = growth as untreated, 0 = no growth, -100 = all killed)
CONDITION: 10 µM unless noted
Compounds without any hit were thinned out: in the full panel of roughly 83,000, 20% have a hit.

- COMPOUND: "COc1ccc(/C=C2\\Oc3cc(OCCCCN4CCCC4)ccc3C2=O)cc1"
  TESTED TARGET: "NCI-H522 lung"
  growth / %: 91.9
- COMPOUND: "O=C(O)c1ccc(N=CC(=O)c2ccc(-c3ccccc3)cc2)cc1"
  TESTED TARGET: "NCI-H522 lung"
  growth / %: 87.2
- COMPOUND: "Cc1ccc(/C=C2\\SC(=S)N(CC(=O)NCCCN3CCOCC3)C2=O)cc1"
  TESTED TARGET: "NCI-H522 lung"
  growth / %: 90.5
- COMPOUND: "NC(CSC(c1ccccc1)(c1ccccc1)c1ccc(Cl)cc1)C(=O)O (centres undefined)"
  TESTED TARGET: "NCI-H522 lung"
  growth / %: 5.69
- COMPOUND: "Cc1nc(/N=C(\\N)NC(=O)Nc2cccc([N+](=O)[O-])c2)sc1C"
  TESTED TARGET: "NCI-H522 lung"
  growth / %: 49.2
- COMPOUND: "COc1ccc(C2CC(c3ccc(Cl)cc3)=NN2/C=C2\\SC(=S)N(NC(=O)Cc3ccccc3Nc3c(Cl)cccc3Cl)C2=O)cc1 (centres undefined)"
  TESTED TARGET: "NCI-H522 lung"
  growth / %: 65.7
- COMPOUND: "c1ccc(-c2cc3n4c(-c5ccccc5)nn(-c5ccccc5)c4cnc-3n2)cc1"
  TESTED TARGET: "NCI-H522 lung"
  growth / %: 9.2
- COMPOUND: "NC(=O)c1cc(Cl)ccc1NC(=O)/C=C/c1ccccc1"
  TESTED TARGET: "NCI-H522 lung"
  growth / %: 4.73
- COMPOUND: "C=C(C)[C@@H]1CC[C@]2(C(N)=O)CC[C@]3(C)[C@H](CC[C@@H]4[C@@]5(C)C/C(=C/c6ccco6)C(=O)C(C)(C)[C@@H]5CC[C@]43C)[C@@H]12"
  TESTED TARGET: "NCI-H522 lung"
  growth / %: 78.8
